Where do the numbers come from? From patent US20160075653A1.

# ASSAY_REMARKS: Measurement of log P values by HPLC on reversed phase columns (methods [a] pH 2.3, [b] pH 2.7, [c] pH 7.8)
# Format: physicochemical
# CONDITION_INFO: HPLC on reversed phase column, method [b], pH 2.7
We begin with a simple list: items and their reported logP.
VALUE_KIND: logP

INSERT INTO assay_data (compound, value_kind, measurement) VALUES
  ('O=C(NC1CCC1c1ccccc1C(F)(F)F)c1nccnc1C(F)(F)F (stereo not shown) [Compound 684]', 'logP', '3.15^[b]'),
  ('O=C(N[C@@H]1CC[C@H]1c1ccc(Cl)cc1Cl)c1cccnc1 (relative stereo)', 'logP', '2.58^[b]'),
  ('O=C(N[C@@H]1CC[C@H]1c1cccc(F)c1C(F)(F)F)c1nccnc1Cl (relative stereo)', 'logP', '3.10^[b]'),
  ('O=C(N[C@@H]1CC[C@H]1c1ccc(Cl)cc1C(F)(F)F)c1ccccc1Cl (relative stereo)', 'logP', '4.01^[b]');
